- target.under.test: T1, cardiotoxin 2 (CTX2) (Naja atra (Taiwan cobra), UniProt P01442 22-81)
- T1 sequence: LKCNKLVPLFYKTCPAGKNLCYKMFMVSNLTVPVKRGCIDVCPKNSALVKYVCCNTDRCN
- protocol.notes: fluorescence quenching titration; 10 mM Tris-HCl pH 7.5, 1 mM EDTA, 100 mM NaCl; temperature not stated; fluorescence with 4 nM aptamer (ex 480/em 520 nm); EMSA with 5 uM aptamer, 20 min, 2% agarose, TAE
- protocol.conditions: protein: native; tags: none; label: 5'-FAM
endpoint: pKd
Please express pKd as -log10 of the molar concentration.

# input Name the recorded pKd of the binder listed here: GCGAGGTGTTCGAGAGTTAGGGCGACATGACCAAACGTT (ssDNA) [FAM-bgt1]
# output 5.20
